Molecular target: Rac GTPase-activating protein 1 (Homo sapiens, UniProt Q9H0H5)
Sequence (Q9H0H5 whole entry): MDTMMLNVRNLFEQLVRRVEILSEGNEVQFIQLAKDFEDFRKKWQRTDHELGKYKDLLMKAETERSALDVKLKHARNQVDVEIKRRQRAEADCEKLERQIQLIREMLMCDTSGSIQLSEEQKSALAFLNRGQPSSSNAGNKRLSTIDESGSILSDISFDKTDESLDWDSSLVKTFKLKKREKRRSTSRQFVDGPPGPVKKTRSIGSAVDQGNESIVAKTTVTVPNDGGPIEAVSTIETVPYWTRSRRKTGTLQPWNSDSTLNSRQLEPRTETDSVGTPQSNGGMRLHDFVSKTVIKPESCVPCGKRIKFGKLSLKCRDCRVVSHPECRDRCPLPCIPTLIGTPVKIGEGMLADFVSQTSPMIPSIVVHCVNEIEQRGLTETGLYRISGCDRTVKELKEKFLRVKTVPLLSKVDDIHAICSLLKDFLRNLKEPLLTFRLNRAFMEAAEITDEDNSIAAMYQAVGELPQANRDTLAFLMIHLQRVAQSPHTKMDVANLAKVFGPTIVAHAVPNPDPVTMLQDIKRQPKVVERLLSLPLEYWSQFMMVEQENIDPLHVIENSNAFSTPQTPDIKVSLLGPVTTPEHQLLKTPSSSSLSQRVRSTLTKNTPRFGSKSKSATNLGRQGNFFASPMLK
Test: blockers of MgcRacGAP-driven Rac1 GTP hydrolysis – biochemical, ADP Hunter fluorescence, primary and confirmatory, confirmation (AID 624330)
Assay type: functional
Calls of active or inactive are those of the source. No rule for the calls is given here.
measuredQuantity: IC50

- molecule: "Cc1cc(NC(=O)CN2CCC(C)CC2)no1"
  val: "253 µM (active)"
- molecule: "Cc1sc2ncnc(N(C)CCc3ccccn3)c2c1C"
  val: "148 µM (active)"
- molecule: "CCCCCCCCCCCCCCCC(O)C[N+](C)(C)CCO (centres undefined)"
  val: "86 µM (active)"
- molecule: "CN1CCN(/N=C/c2nc(-c3ccccc3)n3ccccc23)CC1"
  val: "29.1 µM (active)"
- molecule: "Cc1ccc(N2C(=O)NC(=O)/C(=C/c3ccoc3)C2=O)cc1"
  val: "55.7 µM (active)"
- molecule: "COc1ccc(C(=O)/C=C/c2ccc(O)cc2)cc1"
  val: "37 µM (active)"
- molecule: "COCC(C)NCc1ccccc1C (centres undefined)"
  val: "138 µM (active)"
- molecule: "CCOc1cc(/C=N/NC(=O)C2CCCC2)ccc1O"
  val: "52.1 µM (active)"
- molecule: "CCOC(=O)CSC1=NC(=O)/C(=C\\c2ccc(OC(C)=O)cc2)S1"
  val: "35.2 µM (active)"
- molecule: "N#CC1(Nc2ccc3c4c(cccc24)CC3)CCCCC1"
  val: "18.5 µM (active)"
- molecule: "COc1ccc(Cn2nnnc2C(c2cccnc2)N2CCN(c3ccc(O)cc3)CC2)cc1 (centres undefined)"
  val: "39.6 µM (active)"
- molecule: "O=c1oc2cc(O)ccc2c2oc3cc(O)ccc3c12"
  val: "32.3 µM (active)"
- molecule: "O=C(/C(=C/c1cccnc1)n1ccnc1)c1ccc(Cl)cc1Cl"
  val: "223 µM (active)"
- molecule: "Oc1ccc(NC(=S)N=Nc2c(O)[nH]c3ccc(Br)cc23)cc1"
  val: "152 µM (active)"
